# TARGET UNDER TEST: human erythropoietin receptor on human erythroleukemic cells (UT-7/Epo, F36E) (human), P19235
# Sequence (P19235 25-508, stated change not applied): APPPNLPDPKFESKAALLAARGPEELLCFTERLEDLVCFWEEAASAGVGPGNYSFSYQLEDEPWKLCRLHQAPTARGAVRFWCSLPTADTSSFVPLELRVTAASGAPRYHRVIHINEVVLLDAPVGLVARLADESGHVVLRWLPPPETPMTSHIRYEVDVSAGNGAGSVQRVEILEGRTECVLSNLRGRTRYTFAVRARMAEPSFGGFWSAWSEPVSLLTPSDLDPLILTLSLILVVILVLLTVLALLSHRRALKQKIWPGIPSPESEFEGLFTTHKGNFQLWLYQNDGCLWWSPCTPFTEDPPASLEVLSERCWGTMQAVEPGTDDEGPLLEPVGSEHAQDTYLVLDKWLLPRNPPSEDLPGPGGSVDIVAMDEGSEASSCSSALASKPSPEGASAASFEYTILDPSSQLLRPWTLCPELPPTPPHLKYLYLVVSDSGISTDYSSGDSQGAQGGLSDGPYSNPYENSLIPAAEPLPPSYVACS
# ASSAY COMMENT: cell-based or functional assay
ENDPOINT NAME: Emax, cell proliferation assay (absorbance)
Only the number, expressed in absorbance, is required.

Worked set:
{"BINDER": "Ab12.123 (antibody, IgG2, V domains shown) VH: QVQLQESGPGLVKPSETLSLTCTVSGASISSYYWSWIRQPPGKGLEWIGYIGYEGSTNYNPSLKSRVTISVDTSKNQFSLKLRSVTAADTAVYYCARERLGIGDYWGQGTLVTVSS VL: DIQLTQSPSSLSASVGDRVTITCRASQGIRNDLGWYQQKPGKAPKRLIYAASSLQSGVPSRFSGSGSGTEFTLTISSLQPEDFATYYCLQHNTYPPTFGQGTKVEIK", "Emax, cell proliferation assay / absorbance": 2.7}
{"BINDER": "Ab12.56 (antibody, IgG2, V domains shown) VH: QVQLQESGPGLVKPSETLSLTCTVSGASISSYYWSWIRQPPGKGLEWIGYIAGTGSTNYNPSLKSRVTISVDTSKNQFSLKLRSVTAADTAVYYCARERLGIGDYWGQGTLVTVSS VL: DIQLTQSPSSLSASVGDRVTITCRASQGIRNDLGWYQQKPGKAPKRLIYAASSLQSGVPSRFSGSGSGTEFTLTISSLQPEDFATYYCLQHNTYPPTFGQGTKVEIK", "Emax, cell proliferation assay / absorbance": 2.51}

Exercise: Provide only the value of recorded Emax, cell proliferation assay for Ab12.119 (antibody, IgG2, V domains shown) VH: QVQLQESGPGLVKPSETLSLTCTVSGASISSYYWSWIRQPPGKGLEWIGYIYGSGSTNYNPSLKSRVTISVDTSKNQFSLKLRSVTAADTAVYYCARERLGIGDYWGQGTLVTVSS VL: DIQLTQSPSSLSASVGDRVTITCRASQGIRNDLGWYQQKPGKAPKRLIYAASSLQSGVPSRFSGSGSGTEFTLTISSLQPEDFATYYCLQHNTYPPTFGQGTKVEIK
Solution: 2.53

Exercise: Provide only the value of recorded Emax, cell proliferation assay for Ab12 (antibody, human IgG2, V domains shown) VH: QVQLQESGPGLVKPSETLSLTCTVSGASISSYYWSWIRQPPGKGLEWIGYIYYSGSTNYNPSLKSRVTISVDTSKNQFSLKLRSVTAADTAVYYCARERLGIGDYWGQGTLVTVSS VL: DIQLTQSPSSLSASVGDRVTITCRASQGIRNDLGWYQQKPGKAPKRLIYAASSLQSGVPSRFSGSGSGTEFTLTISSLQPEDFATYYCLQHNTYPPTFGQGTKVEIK
Solution: 1.98

Exercise: Provide only the value of recorded Emax, cell proliferation assay for Ab12.118 (antibody, IgG2, V domains shown) VH: QVQLQESGPGLVKPSETLSLTCTVSGASISSYYWSWIRQPPGKGLEWIGYIGYSGSTNYNPSLKSRVTISVDTSKNQFSLKLRSVTAADTAVYYCARERLGIGDYWGQGTLVTVSS VL: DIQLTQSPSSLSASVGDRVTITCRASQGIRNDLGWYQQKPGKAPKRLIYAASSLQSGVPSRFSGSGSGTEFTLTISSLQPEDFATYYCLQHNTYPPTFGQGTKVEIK
Solution: 2.65

Attribution: patent US20080038265A1
